Biological target: hMcl-1 (residues 172–323) with N-terminal His tag (human, UniProt Q07820 172-323)
Sequence (Q07820 172-323): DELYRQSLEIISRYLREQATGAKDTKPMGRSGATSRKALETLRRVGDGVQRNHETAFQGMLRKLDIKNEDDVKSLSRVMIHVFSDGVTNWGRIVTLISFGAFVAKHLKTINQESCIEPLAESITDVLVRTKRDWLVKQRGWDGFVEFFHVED
Assay: DELFIA displacement assay
Non-standard residues stand in square brackets, D forms with d. Abu = CC[C@H](N)C(=O)O
Endpoint name: IC50

Known IC50 results, listed for orientation:
H-AIAQ[Abu]LRRIGDAF-NH2 (SMILES CC[C@H](NC(=O)[C@H](CCC(N)=O)NC(=O)[C@H](C)NC(=O)[C@@H](NC(=O)[C@H](C)N)[C@@H](C)CC)C(=O)N[C@@H](CC(C)C)C(=O)N[C@@H](CCCNC(=N)N)C(=O)N[C@@H](CCCNC(=N)N)C(=O)N[C@H](C(=O)NCC(=O)N[C@@H](CC(=O)O)C(=O)N[C@@H](C)C(=O)N[C@@H](Cc1ccccc1)C(N)=O)[C@@H](C)CC) [peptide 6]
~1.3 µM
H-AIAQALRRIGDAY-NH2 [peptide 2]
> 3.6 µM

Now for the binder whose IC50 we want.
Ask | For the binder H-AIAQALRRIGDAR-NH2 [peptide 3] , give its measured IC50 value.
Reply | > 10 µM
